Origin of values: PubChem BioAssay (Tox21)

Target entity: D(2) dopamine receptor (Homo sapiens)
Assay name: Dopamine D2 receptor (DRD2) small molecule agonists, cell-based qHTS assay (AID 1963594); also: % is scaled to controls: 0 for no effect and ±100 for the full control effect; nearly all actives have a fitted effect of over 35% in size
Study conditions: HEK293-DRD2 cAMP HTRF, agonist mode, 30 min; series mostly up to 92.4 µM
Results filed as inconclusive are left out. Calls of active or inactive are those of the source. Calls follow the shape of the full dose curve.
Attribute measured: activation

Molecule	Result value
CC(=O)O[C@]1(C(C)=O)CC[C@H]2[C@@H]3C=C(C)C4=CC(=O)CC[C@]4(C)[C@H]3CC[C@@]21C	inactive
Cc1occc1S	inactive
CCN(Cc1cccc(S(=O)(=O)O)c1)c1ccccc1	inactive
CSc1ccc2c(c1)N(CCC1CCCCN1C)c1ccccc1S2 (stereo unspecified)	inactive

Ask: Supply measured activation of `C[n+]1ccn(CCO)c1` in your reply.
Result: inactive

Ask: Let me know recorded activation for CN1[C@@H]2CC[C@H]1CC(NC(=O)n1c(=O)[nH]c3ccccc31)C2 (stereo partly specified) , thanks.
Result: inactive

====

Assay name: p53 small molecule agonists, cell-based qHTS assay with rat liver microsomes: qHTS cell viability counter screen (AID 1963580); also: % is scaled to controls: 0 for no effect and ±100 for the full control effect; nearly all actives have a fitted effect of over 45% in size
Study conditions: p53RE-bla HCT-116 + rat microsomes, ATP viability, 16 h; series mostly up to 66 µM
Results filed as inconclusive are left out. Calls of active or inactive are those of the source. Calls follow the shape of the full dose curve.
Attribute measured: activity change, negative = cytotoxicity

Some compounds with known activity change, negative = cytotoxicity results, for comparison:
Entry smiles	activity change, negative = cytotoxicity
O=S(=O)(O)C(F)(F)F	inactive
O=C[C@H](O)[C@@H](O)[C@H](O)[C@H](O)CO	inactive
CCOC(/C=C(\C)CCC=C(C)C)OCC	inactive
COc1ccc(N)c(C)c1	inactive
C=COCCOCCOCCOC=C	inactive
OC1CCCCCCCCCCC1	inactive

Okay, now this compound:
Ask: Answer with the recorded activity change, negative = cytotoxicity for the compound listed here: `CC(=O)OCC(=O)[C@@]1(O)CC[C@H]2[C@@H]3CCC4=CC(=O)C=C[C@]4(C)[C@H]3[C@@H](O)C[C@@]21C`
Result: inactive

====

Assay name: p53 small molecule agonists, cell-based qHTS assay with rat liver microsomes: qHTS cell viability counter screen (AID 1963580); also: % is scaled to controls: 0 for no effect and ±100 for the full control effect; nearly all actives have a fitted effect of over 45% in size
Study conditions: p53RE-bla HCT-116 + rat microsomes, ATP viability, 16 h; series mostly up to 66 µM
Results filed as inconclusive are left out. Activity calls are given as the source filed them. Calls come from the whole dose curve.
Attribute measured: activity change, negative = cytotoxicity

Example cases with answers are listed next.
Compound	Result value
Nc1cccc2c1CN(C1CCC(=O)NC1=O)C2=O (stereo unspecified)	inactive
NC[C@H]1O[C@H](O[C@H]2[C@H](O)[C@@H](O[C@H]3O[C@H](CO)[C@@H](O)[C@H](N)[C@H]3O)[C@H](N)C[C@@H]2N)[C@H](N)[C@@H](O)[C@@H]1O	3.53% [at 13.5 µM] (inactive)
CC(=O)OCc1ccccc1	inactive
CCCC(C)CO (stereo unspecified)	inactive
CC(C)C(=O)Nc1cccc(C2CN3CCSC3=N2)c1 (stereo unspecified)	inactive

Ask: Provide activity change, negative = cytotoxicity value for the following compound: `c1ccc2c(c1)-c1cccc3c1c-2cc1ccccc13`
Result: inactive

Ask: Return reported activity change, negative = cytotoxicity. Input compound: `CCN(CC)CC(=O)Oc1ccc(NC(C)=O)cc1`
Result: inactive

====

Assay name: Nuclear factor erythroid 2-related factor 2/antioxidant responsive element (Nrf2/ARE) small molecule agonists: qHTS cell viability counter screen in human keratinocytes (AID 1919968); also: % is scaled to controls: 0 for no effect and ±100 for the full control effect; nearly all actives have a fitted effect of over 55% in size
Study conditions: KeratinoSens HaCaT ARE cells viability, CellTiter-Fluor, 24 h; series mostly up to 92.4 µM
Inconclusive results are not listed. The source made the active and inactive calls. The call rests on the fitted dose curve; in most records, active means well fitted cell-killing curve with a large enough effect in the repeat runs; inconclusive means weak or mixed curves, or effect the other way; inactive means flat fitted curve, though single readings scatter.
Attribute measured: outcome

Worked examples follow.
Compound	Result value
O=C1Nc2ccccc2C1=O	inactive
CC(C)=CCC/C(C)=C/C#N	inactive
FC(F)(F)C(Cl)(Cl)Cl	inactive
CC(=C(CCOC(=O)C(C)C)SSC(CCOC(=O)C(C)C)=C(C)N(C=O)Cc1cnc(C)nc1N)N(C=O)Cc1cnc(C)nc1N	inactive
CC1(C)[C@@H]2CC[C@]3(C2)[C@@H]1C(=O)CCC3(C)C	inactive

Ask: Indicate the recorded outcome value for this compound: `CCC(CO)(CO)CO`
Result: inactive

====

Assay name: cAMP Responsive Elements (CRE) small molecule antagonists, cell-based qHTS assay (AID 1963591); also: % is scaled to controls: 0 for no effect and ±100 for the full control effect
Study conditions: CRE-bla HEK293T, beta-lactamase FRET ratio; series mostly up to 92.4 µM
Inconclusive results are not listed. The source made the active and inactive calls. The call rests on the fitted dose curve; in most records, active means well fitted inhibition curve with a large enough effect in the signal ratio in the repeat runs (not every such curve was filed as active); inconclusive means weak or mixed curves, or effect the other way; inactive means flat fitted curve, though single readings scatter; the % refers to the signal ratio.
Attribute measured: activity change, negative = inhibition

Compound	activity change, negative = inhibition
CCCCCCOC(=O)c1ccccc1O	inactive
Nc1ccc(Cl)c(N)c1	inactive
Clc1ccc2c(Cl)ccnc2c1	inactive
Cc1ccc(-c2ccccc2)cc1	inactive
CC(C)(C)S	inactive
O=C(O)c1cc(N=Nc2ccc(S(=O)(=O)Nc3ccccn3)cc2)ccc1O	inactive
C=CCOCC(O)CO (centres undefined)	inactive
NCCC(O)(P(=O)(O)O)P(=O)(O)O	inactive

Ask: Please give measured activity change, negative = inhibition of the following entry: `[O]=[Zr]`
Result: inactive

Ask: Complete the entry with activity change, negative = inhibition for `Cc1ccc(NC(=O)N(C)C)cc1NC(=O)N(C)C`
Result: inactive

====

Assay name: Nuclear factor erythroid 2-related factor 2/antioxidant responsive element (Nrf2/ARE) small molecule agonists: luciferase reporter gene qHTS assay in human keratinocytes (AID 1919969); also: % is scaled to controls: 0 for no effect and ±100 for the full control effect; nearly all actives have a fitted effect of over 35% in size
Study conditions: KeratinoSens HaCaT ARE-luciferase, luminescence, 24 h; series mostly up to 92.4 µM
Records with an inconclusive call do not appear. Calls of active or inactive are those of the source. Calls follow the shape of the full dose curve.
Result category, one only: active, inactive

Compound	Class assignment
CCCCNc1ccccc1	inactive
O=C(O)c1cc2ccccc2cc1O	inactive
CC(C)[C@@H]1CC[C@@H](C)CC1=O	inactive

Ask: Which outcome was assigned to `NC(=S)N/N=C/c1cccnc1` in this test?
Result: inactive

Ask: Can you look up the reported call for CC(COCCO)OCCO (configuration not stated) for me?
Result: inactive

Ask: Called result for `CC(C)(C)OC(=O)c1cccc(N)c1`
Result: inactive

Ask: Call for entry `Nc1c(S(=O)(=O)O)cc(Br)c2c1C(=O)c1ccccc1C2=O` :
Result: inactive

Ask: Per the records of this test, what outcome belongs to CCC(C(=O)NC(N)=O)c1ccccc1 (configuration not stated) ?
Result: inactive

====

Target entity: Muscarinic acetylcholine receptor M1 (Homo sapiens)
Assay name: Cholinergic receptor muscarinic 1 (CHRM1) small molecule antagonists, cell-based qHTS assay (AID 1963588); also: % is scaled to controls: 0 for no effect and ±100 for the full control effect; nearly all actives have a fitted effect of over 40% in size
Study conditions: CHRM1-CHO antagonist mode, calcium flux fluorescence; series mostly up to 61.5 µM
Results filed as inconclusive are left out. Activity calls are given as the source filed them. The call rests on the fitted dose curve.
Attribute measured: activity, negative = inhibition

For orientation, consider the following solved cases.
Compound	activity, negative = inhibition
CC1=NN(c2ccc(S(=O)(=O)O)cc2)C(=O)C1	inactive
CC(C)CCCCCCc1ccc(O)cc1	inactive
CC(C)(O)C#CC(C)(C)O	inactive
CCCCCCCCS(=O)(=O)Cl	inactive
F[Si-2](F)(F)(F)(F)F	inactive
C=CC(C)(O)CC/C=C(\C)CCC=C(C)C (centres undefined)	inactive

Ask: Supply measured activity, negative = inhibition of `COCc1ccc(COC)cc1` in your reply.
Result: inactive

Ask: Indicate its recorded activity, negative = inhibition; the compound in question is `CCOCOCC`
Result: inactive

Ask: Using known records, supply activity, negative = inhibition for `CCCCCC/C=C/C(=O)OC`
Result: inactive

====

Assay name: p53 small molecule agonists, cell-based qHTS assay with human liver microsomes (AID 1963577);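 also: p53 response element beta-lactamase reporter cells with liver microsomes plus NADPH; % is scaled to controls: 0 for no effect and ±100 for the full control effect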
Study conditions: HCT-116 p53RE-bla with human liver microsomes, ratio, 16 h; series mostly up to 66 µM
Results filed as inconclusive are left out. Calls of active or inactive are those of the source. The call rests on the fitted dose curve.
Attribute measured: activation

Worked set:
Compound	Result value
C=C(C)C(=O)NCCCN(C)C	inactive
CCCCCCCOC(=O)c1ccccc1C(=O)OCCCCCCC	inactive
c1ccc2c(c1)CCc1ccccc1N2	inactive
CC[C@]1(O)C[C@@H]2CN(CCc3c([nH]c4ccccc34)[C@@](C(=O)OC)(c3cc4c(cc3OC)N(C)[C@H]3[C@@](O)(C(=O)OC)[C@H](OC(C)=O)[C@]5(CC)C=CCN6CC[C@]43[C@@H]65)C2)C1	inactive

Ask: Query activation for `CCOC(=S)SSC(=S)OCC`
Result: inactive

Ask: Please look at this compound and report its activation: `CC(=O)O[C@H]1C[C@@H]2CC[C@@]1(C)C2(C)C`
Result: inactive

Ask: Indicate its recorded activation; the compound in question is `N[C@@H](CSSC[C@H](N)C(=O)O)C(=O)O`
Result: 0.648% [at 0.249 µM] (inactive)

Ask: Determine from records and report activation for CCCOC(=O)C(C)O (stereo not drawn)
Result: inactive

====

Target entity: 5-hydroxytryptamine receptor 2A (Homo sapiens) (UniProt P28223)
Sequence (P28223 whole entry, looked up): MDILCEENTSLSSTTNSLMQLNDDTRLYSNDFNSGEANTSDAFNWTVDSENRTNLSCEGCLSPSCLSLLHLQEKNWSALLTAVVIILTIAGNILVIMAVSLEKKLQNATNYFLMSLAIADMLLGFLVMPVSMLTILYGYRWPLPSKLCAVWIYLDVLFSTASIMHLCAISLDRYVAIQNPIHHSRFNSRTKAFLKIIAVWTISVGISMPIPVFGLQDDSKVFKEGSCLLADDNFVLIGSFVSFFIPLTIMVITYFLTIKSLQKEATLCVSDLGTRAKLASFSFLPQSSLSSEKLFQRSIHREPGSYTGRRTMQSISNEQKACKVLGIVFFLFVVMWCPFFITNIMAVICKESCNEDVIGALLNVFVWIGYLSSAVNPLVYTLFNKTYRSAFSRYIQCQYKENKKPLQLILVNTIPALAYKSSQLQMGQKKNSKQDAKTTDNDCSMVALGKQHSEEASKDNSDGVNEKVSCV
Assay name: 5-hydroxytryptamine receptor 2A (HTR2A) small molecule antagonists, cell-based qHTS assay (AID 1963586); also: potency is read from the fitted curve at half-maximal effect; nearly all actives have a fitted effect of over 45% in size
Study conditions: HTR2A-CHO cells, DOI-induced calcium flux, fluorescence; series mostly up to 61.5 µM
Results filed as inconclusive are left out. The source made the active and inactive calls. Calls come from the whole dose curve.
Attribute measured: Potency

Below are worked cases with known answers.
Molecule	Attribute measured	Result value
O=C(CCCN1CCC(O)(c2cccc(C(F)(F)F)c2)CC1)c1ccc(F)cc1	Potency	0.365 µM (active)
CN(C1CCCCC1)S(=O)(=O)c1ccccc1N	Potency	37.5 µM (active)
O=C1NC(=O)[C@@]2(CCOc3ccc(F)cc32)N1	Potency	0.818 µM (active)
CC(C)CCCCCCc1ccc(O)cc1	Potency	34 µM (active)
COc1cc(CCC(C)=O)ccc1O	Potency	3.75 µM (active)

Ask: Name the recorded Potency of the molecule listed here: CN1Cc2c(N)cccc2C(c2ccccc2)C1 (stereo not drawn)
Result: 14.9 µM (active)

Ask: In one line, give reported Potency of the entry `c1ccc(CNCc2ccccc2)cc1` .
Result: 8.4 µM (active)

Ask: Supply measured Potency of `CCN1CCC[C@H]1CNC(=O)c1c(O)c(Cl)cc(Cl)c1OC` in your reply.
Result: 18.3 µM (active)

Ask: Hello, please tell me recorded Potency for this one: CCN1CCCC(OC(=O)C(c2ccccc2)c2ccccc2)C1 (stereo not drawn)
Result: 0.163 µM (active)

Ask: Please give the documented Potency of `CN(C)c1ccc(Cc2ccc(N(C)C)cc2)cc1`
Result: 4.23 µM (active)

Ask: Query Potency for `COc1cc(N)c(Cl)cc1C(=O)NC1CCN(Cc2ccccc2)CC1`
Result: 1.83 µM (active)

Ask: Quote Potency reported for `CC(C)(C)c1nnc(NS(=O)(=O)c2ccc(N)cc2)s1` please.
Result: 7.29 µM (active)

Ask: Given the molecule `CC(C)(C)c1ccc(O)c(C(C)(C)C)c1` , write its reported Potency.
Result: 23.7 µM (active)
